Experiment: Dissociation constant, pKa of the compound
Assay type: physicochemical

{"compoundStructureString": "CCOC(=O)OC1=C(c2cc(C)ccc2C)C(=O)N[C@]12CC[C@@H](OC)CC2", "pKa": 5.2}

* * *

Test: Lipophilicity, log P of the compound
Format: physicochemical
Settings: octanol/water

{"compoundStructureString": "CCOC(=O)OC1=C(c2cc(C)ccc2C)C(=O)N[C@]12CC[C@@H](OC)CC2", "logP": 0.3}
